The origin of these recorded values is ChEMBL document CHEMBL6074684.

system: SGC-7901; experiment: Antiproliferative activity against human SGC-7901 cells assessed as inhibition of cell growth incubated for 72 hrs by MTT assay; assay type: functional, cell-based; settings: SGC-7901, 72 h
Kindly state pIC50 for each of the entries shown.
Conceptually, pIC50 converts a concentration in mol/L into minus its log10.

Data request, read-out pIC50, for "CSCC[C@H](NC(=O)OC(C)(C)C)C(=O)Oc1ccc2[nH]c3c(c2c1)CCN1C(=O)c2cc(F)ccc2N(c2cccc(F)c2)[C@H]31"
6.29

For the compound shown here, "CC(C)(C)OC(=O)N[C@@H](CCC(N)=O)C(=O)Oc1ccc2[nH]c3c(c2c1)CCN1C(=O)c2cc(F)ccc2N(c2cccc(F)c2)[C@@H]31" , give the reported pIC50.
4.22

Which pIC50 is reported for this compound? "CC(C)(C)OC(=O)N[C@@H](Cc1cnc[nH]1)C(=O)Oc1ccc2[nH]c3c(c2c1)CCN1C(=O)c2cc(F)ccc2N(c2cccc(F)c2)[C@H]31"
6.64

Tell me the measured pIC50 of "CC(C)(C)OC(=O)N[C@@H](COCc1ccccc1)C(=O)Oc1ccc2[nH]c3c(c2c1)CCN1C(=O)c2cc(F)ccc2N(c2cccc(F)c2)[C@@H]31" , please.
4.24

Would you kindly share the measured pIC50 for "C[C@H](NC(=O)OC(C)(C)C)C(=O)Oc1ccc2[nH]c3c(c2c1)CCN1C(=O)c2cc(F)ccc2N(c2cccc(F)c2)[C@H]31" ?
6.20

What value of measured pIC50 is listed for "CC(C)C[C@H](NC(=O)OC(C)(C)C)C(=O)Oc1ccc2[nH]c3c(c2c1)CCN1C(=O)c2cc(F)ccc2N(c2cccc(F)c2)[C@H]31" ?
6.16
